Tested on: CCRIS mutagenicity, Ames/micronucleus/aberration tests
ASSAY COMMENT: CCRIS mutagenicity studies
ASSAY CONDITIONS: Test System: AMES SALMONELLA TYPHIMURIUM; Strain/Indicator: TA98; Metabolic Activation: RAT LIVER S-9, PHENOBARBITAL AND BETA-NAPHTHOFLAVONE; Method: PREINCUBATION
Calls of active or inactive are those of the source. No rule for the calls is given here.
Answer with one of the outcomes given here: active, inactive

(Q) Record lookup: outcome of this test for C1CCCNCC1 ?
(A) inactive

(Q) Record lookup: outcome of this test for Cc1ccccc1S(N)(=O)=O ?
(A) inactive

(Q) Record lookup: outcome of this test for NCCCCCCCCCCCC(=O)O ?
(A) inactive

(Q) Record lookup: outcome of this test for O=S(=O)(O)c1cc(S(=O)(=O)O)c2cc(O)ccc2c1 ?
(A) inactive

(Q) Record lookup: outcome of this test for O=C(O)c1ccccc1O ?
(A) inactive

(Q) Record lookup: outcome of this test for O=[N+]([O-])c1cc(Cl)ccc1Cl ?
(A) inactive

(Q) Record lookup: outcome of this test for CCOCCOC(C)=O ?
(A) inactive

(Q) Record lookup: outcome of this test for O.O.O.O.O.[Cd+2].[Cd+2].[Cl-].[Cl-].[Cl-].[Cl-] ?
(A) inactive

(Q) Record lookup: outcome of this test for CCCC(=O)O ?
(A) inactive

(Q) Record lookup: outcome of this test for CC(C)Br ?
(A) inactive

(Q) Record lookup: outcome of this test for NC(=Nc1ccccc1)Nc1ccccc1 ?
(A) inactive

(Q) Record lookup: outcome of this test for Cc1ccc(N)cc1 ?
(A) inactive

(Q) Record lookup: outcome of this test for O=Cc1ccccc1 ?
(A) inactive

(Q) Record lookup: outcome of this test for C=C(C)C(=O)OCCN(C)C ?
(A) inactive

(Q) Record lookup: outcome of this test for CC(C)(c1ccc(O)cc1)c1ccc(O)cc1 ?
(A) inactive

(Q) Record lookup: outcome of this test for CC(C)c1ccccc1O ?
(A) inactive

(Q) Record lookup: outcome of this test for CCC(C)c1ccccc1O (stereo not drawn) ?
(A) inactive

(Q) Record lookup: outcome of this test for N=C(N)S(=O)O ?
(A) inactive

(Q) Record lookup: outcome of this test for BrCCCCCBr ?
(A) inactive

(Q) Record lookup: outcome of this test for CCOC(=O)CC(C)=O ?
(A) inactive

(Q) Record lookup: outcome of this test for Oc1ccccc1 ?
(A) inactive

(Q) Record lookup: outcome of this test for OCCOCCOCCO ?
(A) inactive

(Q) Record lookup: outcome of this test for Cc1ccccn1 ?
(A) inactive

(Q) Record lookup: outcome of this test for CCOS(=O)(=O)OCC ?
(A) active

(Q) Record lookup: outcome of this test for Cc1ccc(Cl)cc1 ?
(A) inactive

(Q) Record lookup: outcome of this test for O=C(O)c1ccc2c(c1)C(=O)OC2=O ?
(A) inactive

(Q) Record lookup: outcome of this test for CC(CO)(CO)CO ?
(A) inactive

(Q) Record lookup: outcome of this test for NC(N)=S ?
(A) inactive

(Q) Record lookup: outcome of this test for Cc1cc(-c2ccc(N=C=O)c(C)c2)ccc1N=C=O ?
(A) active

(Q) Record lookup: outcome of this test for O=C1C(Cl)=C(Cl)C(=O)c2ccccc21 ?
(A) inactive

(Q) Record lookup: outcome of this test for [B-] ?
(A) inactive

(Q) Record lookup: outcome of this test for O=S(=O)(c1ccc(O)cc1)c1ccc(O)cc1 ?
(A) inactive

(Q) Record lookup: outcome of this test for Cc1nc(N)nc(N)n1 ?
(A) inactive

###

System: CCRIS mutagenicity, Ames/micronucleus/aberration tests
ASSAY COMMENT: CCRIS mutagenicity studies
ASSAY CONDITIONS: Test System: AMES SALMONELLA TYPHIMURIUM; Strain/Indicator: TA100; Metabolic Activation: RAT, NADPH-FORTIFIED HOMOGENIZED HEPATOCYTES, AROCLOR 1254; Method: PREINCUBATION
Activity calls are given as the source filed them. No rule for the calls is given here.
VALUE TYPE: mutagenic call

INSERT INTO results (chemical_string, target_desc, value_type, result_value) VALUES
  ('Cc1cc2cccc3ccc4c5ccccc5cc1c4c32', 'CCRIS mutagenicity, Ames/micronucleus/aberration tests', 'mutagenic call', 'active; positive'),
  ('Cc1cc2cc3ccccc3cc2c2ccccc12', 'CCRIS mutagenicity, Ames/micronucleus/aberration tests', 'mutagenic call', 'active; positive'),
  ('Cc1ccc2cc3c(ccc4ccccc43)cc2c1', 'CCRIS mutagenicity, Ames/micronucleus/aberration tests', 'mutagenic call', 'active; positive'),
  ('Cc1ccc2ccc3cc4ccccc4c4ccc1c2c34', 'CCRIS mutagenicity, Ames/micronucleus/aberration tests', 'mutagenic call', 'active; positive');

###

Tested on: CCRIS mutagenicity, Ames/micronucleus/aberration tests
ASSAY COMMENT: CCRIS mutagenicity studies
ASSAY CONDITIONS: Test System: E. COLI; Strain/Indicator: WP2 UVRA; Metabolic Activation: HAMSTER, LIVER, S-9, AROCLOR 1254; Method: STANDARD PLATE
Active and inactive are the calls of the source. The rule behind the calls is not given here.
Answer with one of the outcomes given here: active, inactive

(Q) Record lookup: outcome of this test for Nc1ccccc1 ?
(A) inactive

(Q) Record lookup: outcome of this test for c1ccc2c(c1)ccc1ccccc12 ?
(A) inactive

(Q) Record lookup: outcome of this test for O=P1(N(CCCl)CCCl)NCCCO1 (centres undefined) ?
(A) inactive

(Q) Record lookup: outcome of this test for CNNCc1ccc(C(=O)NC(C)C)cc1 ?
(A) inactive

(Q) Record lookup: outcome of this test for COS(C)(=O)=O ?
(A) active

(Q) Record lookup: outcome of this test for CCOc1ccc(NC(C)=O)cc1 ?
(A) inactive

(Q) Record lookup: outcome of this test for NC(N)=S ?
(A) inactive

(Q) Record lookup: outcome of this test for c1cc2ccc3cccc4ccc(c1)c2c34 ?
(A) inactive

(Q) Record lookup: outcome of this test for O=[N+]([O-])c1cccc2ccccc12 ?
(A) inactive

###

Tested on: CCRIS mutagenicity, Ames/micronucleus/aberration tests
ASSAY COMMENT: CCRIS mutagenicity studies
ASSAY CONDITIONS: Test System: AMES SALMONELLA TYPHIMURIUM; Strain/Indicator: TA1538; Metabolic Activation: RAT, LIVER, S-9, PHENOBARBITAL; Method: STANDARD PLATE
Active and inactive are the calls of the source. The rule behind the calls is not given here.
Answer with one of the outcomes given here: active, inactive

(Q) Record lookup: outcome of this test for Nc1ccc2c(c1)[nH]c1ccccc12 ?
(A) active

(Q) Record lookup: outcome of this test for COc1cc(Cc2cnc(N)nc2N)cc(OC)c1OC ?
(A) active

(Q) Record lookup: outcome of this test for CC(=O)Nc1ccc2[nH]c3ccccc3c2c1[N+](=O)[O-] ?
(A) active

(Q) Record lookup: outcome of this test for COP(=S)(OC)SCN1C(=O)c2ccccc2C1=O ?
(A) inactive

###

Test system: CCRIS mutagenicity, Ames/micronucleus/aberration tests
ASSAY COMMENT: CCRIS mutagenicity studies
ASSAY CONDITIONS: Test System: AMES SALMONELLA TYPHIMURIUM; Strain/Indicator: TA98; Metabolic Activation: HAMSTER, LIVER, S-9, AROCLOR 1254; Method: PREINCUBATION
The source made the active and inactive calls. How the calls were made is not given here.
Answer with one of the outcomes given here: class 1 = active, class 0 = inactive

(Q) Record lookup: outcome of this test for Cc1ccccc1C ?
(A) class 0

(Q) Record lookup: outcome of this test for OC[P+](CO)(CO)CO ?
(A) class 0

(Q) Record lookup: outcome of this test for CCCCOC(=O)c1ccc(N)cc1 ?
(A) class 0

(Q) Record lookup: outcome of this test for CC(Cl)CCCC(Cl)CCCC(Cl)CCCC(Cl)CCCC(Cl)CCCC(Cl)CCCl (stereo not given) ?
(A) class 0

(Q) Record lookup: outcome of this test for CCCCOCCOP(=O)(OCCOCCCC)OCCOCCCC ?
(A) class 0

(Q) Record lookup: outcome of this test for ClCC(Cl)CCl ?
(A) class 0

(Q) Record lookup: outcome of this test for CC1=CC[C@H]2C(C)=CC[C@@H](C(C)C)[C@@H]2C1 ?
(A) class 0

(Q) Record lookup: outcome of this test for O=[N+]([O-])c1c(Cl)c(Cl)cc(Cl)c1Cl ?
(A) class 0

(Q) Record lookup: outcome of this test for Clc1cccc(Cl)c1Cl ?
(A) class 0

(Q) Record lookup: outcome of this test for CCn1c2ccccc2c2cc(N)ccc21 ?
(A) class 1

(Q) Record lookup: outcome of this test for ClC=C(Cl)Cl ?
(A) class 0

(Q) Record lookup: outcome of this test for CC(C)NCC(O)c1ccc(O)c(O)c1 (stereo not given) ?
(A) class 0

(Q) Record lookup: outcome of this test for ClC(Cl)=C(Cl)Cl ?
(A) class 0

(Q) Record lookup: outcome of this test for OCc1ccccc1 ?
(A) class 0

(Q) Record lookup: outcome of this test for CN(C)C(=O)Nc1ccc(Cl)cc1 ?
(A) class 0
